testedOn: T1, human TNFR2 on the surface of CHO-TNFR2 cells (human, UniProt P20333 23-461)
T1 construct: whole, on cells
T1 sequence (looked up): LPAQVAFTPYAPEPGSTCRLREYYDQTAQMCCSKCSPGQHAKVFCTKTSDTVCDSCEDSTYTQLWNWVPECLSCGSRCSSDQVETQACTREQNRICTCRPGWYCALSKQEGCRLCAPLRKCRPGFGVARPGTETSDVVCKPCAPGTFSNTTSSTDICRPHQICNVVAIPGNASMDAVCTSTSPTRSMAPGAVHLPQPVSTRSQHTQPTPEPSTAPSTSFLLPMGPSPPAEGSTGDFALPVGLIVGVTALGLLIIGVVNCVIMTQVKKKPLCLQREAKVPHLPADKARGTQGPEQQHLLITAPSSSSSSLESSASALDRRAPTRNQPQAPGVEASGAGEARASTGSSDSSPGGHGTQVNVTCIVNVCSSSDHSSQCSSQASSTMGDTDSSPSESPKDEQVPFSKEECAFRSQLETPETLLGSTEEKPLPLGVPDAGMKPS
experiment: flow cytometry on CHO-TNFR2 cells; EC50 against 219-WT
valueKind: % Relative activity (WT antibody/test antibody) (%)
Response body: numeric value in %, unit text excluded.

Illustrative cases are given below, each with its answer.
219-Hu2 (antibody, V domains shown, also called VH4 + VL5) VH: QVQLVQSGAEVKKPGSSVKVSCKASGYSFTNYWMNWVRQAPGQGLEWMGMIHPSDTETRLNQNFKDKATITADKSTSTAYMELSSLRSEDTAVYYCARGEGLGAARSVSMDYWGQGTLVTVSS VL: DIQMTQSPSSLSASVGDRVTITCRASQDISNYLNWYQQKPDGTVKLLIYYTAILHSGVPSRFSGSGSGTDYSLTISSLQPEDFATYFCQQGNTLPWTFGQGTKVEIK	97.1
219-Hu5 (antibody, V domains shown, also called VH7 + VL5) VH: QVQLVQSGAEVKKPGSSVKVSCKASGYSFTNYWMNWVRQAPGQGLEWMGMIHPSDTETRLNQNFKDRVTITVDKSTSTAYMELSSLRSEDTAVYYCARGEGLGAARSVSMDYWGQGTLVTVSS VL: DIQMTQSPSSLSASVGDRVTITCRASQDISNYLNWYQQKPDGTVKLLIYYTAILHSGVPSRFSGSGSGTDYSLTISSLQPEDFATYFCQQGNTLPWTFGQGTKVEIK	147
219-Hu3 (antibody, V domains shown, also called VH5 + VL5) VH: QVQLVQSGAEVKKPGSSVKVSCKASGYSFTNYWMNWVRQAPGQGLEWMGMIHPSDTETRLNQNFKDRVTITADKSTSTAYMELSSLRSEDTAVYYCARGEGLGAARSVSMDYWGQGTLVTVSS VL: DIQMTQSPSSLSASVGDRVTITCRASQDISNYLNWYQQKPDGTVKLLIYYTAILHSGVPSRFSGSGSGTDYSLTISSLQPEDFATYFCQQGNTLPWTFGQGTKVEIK	145
219-Hu1 (antibody, V domains shown, also called VH3 + VL5) VH: QVQLVQSGAEVKKPGASVKVSCKASGYSFTNYWMNWVRQAPGQRLEWMGMIHPSDTETRLNQNFKDRVTITRDTSASTAYMELSSLRSEDTAVYYCARGEGLGAARSVSMDYWGQGTLVTVSS VL: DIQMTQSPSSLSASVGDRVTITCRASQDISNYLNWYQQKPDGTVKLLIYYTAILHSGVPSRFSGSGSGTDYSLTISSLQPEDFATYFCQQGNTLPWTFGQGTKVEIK	100

Now take the following binder into account.
Consider 219-Hu4 (antibody, V domains shown, also called VH6 + VL5) VH: QVQLVQSGAEVKKPGSSVKVSCKASGYSFTNYWMNWVKQAPGQGLEWIGMIHPSDTETRLNQNFKDKATLTVDKSTSTAYMELSSLRSEDTAVYYCARGEGLGAARSVSMDYWGQGTLVTVSS VL: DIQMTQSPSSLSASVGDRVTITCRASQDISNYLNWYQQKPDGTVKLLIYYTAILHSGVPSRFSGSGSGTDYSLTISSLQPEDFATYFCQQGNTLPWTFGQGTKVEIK . Its measured % Relative activity (WT antibody/test antibody) is 142
